# reported 48 h IGC50 (-log10 mol/L); entries follow
# Tested on: Tetrahymena pyriformis
# test_summary: 48 h IGC50 (-log10 mol/L); higher = more toxic
property_label: 48 h IGC50 (-log10 mol/L)

{"molecule": "Cc1c(N)ccc(O)c1C", "test_value": 4.44}
{"molecule": "CCOC(C)=O", "test_value": 1.7}
{"molecule": "O=Cc1ccc([N+](=O)[O-])cc1", "test_value": 3.2}
{"molecule": "C=COC(=O)CCC", "test_value": 2.62}
{"molecule": "O=[N+]([O-])CBr", "test_value": 4.64}
{"molecule": "O=[N+]([O-])c1cc(Cl)c(Cl)c(Cl)c1", "test_value": 4.55}
{"molecule": "CC(C)(C)CC=O", "test_value": 2.63}
{"molecule": "CSc1ccccc1", "test_value": 3.18}
{"molecule": "CCOC(=O)CCCCCCC(=O)OCC", "test_value": 3.7}
{"molecule": "CCCCC(=O)C(C)=O", "test_value": 3.04}
{"molecule": "NC(=O)CCl", "test_value": 3.04}
{"molecule": "CCc1ccc(-c2ccccc2)cc1", "test_value": 4.97}
{"molecule": "CCC(C)C(N)CO (stereo not given)", "test_value": 2.34}
{"molecule": "O=Cc1cccc(O)c1O", "test_value": 3.11}
{"molecule": "CCC(C)(C)O", "test_value": 1.83}
{"molecule": "CCOC(=O)C(C)C", "test_value": 1.73}
{"molecule": "O=C(O)c1ccc(Cl)c(Cl)c1", "test_value": 3.31}
{"molecule": "C=COC(=O)/C=C/C", "test_value": 2.85}
{"molecule": "N#CCCCBr", "test_value": 2.54}
{"molecule": "CCC(O)CC", "test_value": 1.76}
{"molecule": "O=[N+]([O-])c1cc(Cl)ccc1O", "test_value": 5.12}
{"molecule": "OCC#Cc1ccccc1", "test_value": 3.07}
{"molecule": "CCCC/C=C/C(C)=O", "test_value": 3.74}
{"molecule": "O=Cc1ccc([N+](=O)[O-])c(O)c1", "test_value": 3.27}
{"molecule": "CCCCC(C)O (stereo not given)", "test_value": 2.07}
{"molecule": "CCCCC(=O)OCC", "test_value": 2.64}
{"molecule": "OC/C=C/c1ccccc1", "test_value": 2.92}
{"molecule": "C=COC(C)=O", "test_value": 2.14}
{"molecule": "COC(=O)CCCCCCCCC(=O)OC", "test_value": 4.01}
{"molecule": "CC=CC(=O)OCC(C)C", "test_value": 2.66}
{"molecule": "O=[N+]([O-])c1c(F)c(F)c(F)c(F)c1F", "test_value": 5.43}
{"molecule": "O=C(c1ccccc1)c1ccc(O)cc1O", "test_value": 4.37}
{"molecule": "O=Cc1cc(C(F)(F)F)cc(Cl)c1F", "test_value": 4.24}
{"molecule": "NCCc1ccc(Cl)cc1", "test_value": 3.14}
{"molecule": "CC1CCOC1=O (stereo not given)", "test_value": 1.81}

###

# Tested on: Tetrahymena pyriformis
# test_summary: 48 h IGC50 (-log10 mol/L); higher = more toxic
Label satisfied for high-side 48 h IGC50 (-log10 mol/L) (at or above 4) and not satisfied for low-side 48 h IGC50 (-log10 mol/L) (below it).

{"molecule": "CCCCCCCCCc1ccc(O)cc1", "class_label": "satisfied"}
{"molecule": "C=C(C)C(=O)OCC(C)C", "class_label": "not satisfied"}
{"molecule": "O=C(OCCO)c1ccccc1O", "class_label": "not satisfied"}
{"molecule": "Clc1ccc(Br)s1", "class_label": "not satisfied"}
{"molecule": "C=COC(=O)c1ccc(C(C)(C)C)cc1", "class_label": "satisfied"}
{"molecule": "OCCc1ccccc1", "class_label": "not satisfied"}
{"molecule": "CCOC(=O)C=C(C)C", "class_label": "not satisfied"}
{"molecule": "Cc1cc(N)c([N+](=O)[O-])cc1C", "class_label": "not satisfied"}
{"molecule": "CC(C)C(Br)C(=O)O (stereo not given)", "class_label": "not satisfied"}
{"molecule": "NCCO", "class_label": "not satisfied"}
{"molecule": "CC(C)(N)CO", "class_label": "not satisfied"}
{"molecule": "C#CC(=O)OCC", "class_label": "satisfied"}
{"molecule": "CCOC(=O)CCCl", "class_label": "not satisfied"}
{"molecule": "CCCCCCCCc1ccc(N)cc1", "class_label": "satisfied"}
{"molecule": "N#CCc1ccccc1", "class_label": "not satisfied"}
{"molecule": "Oc1cc(Cl)cc(Cl)c1", "class_label": "satisfied"}
{"molecule": "CC=C(C)C(=O)OCC", "class_label": "not satisfied"}
{"molecule": "NCCc1ccccn1", "class_label": "not satisfied"}
{"molecule": "Cc1cc(O)ccc1Cl", "class_label": "not satisfied"}
{"molecule": "CCCCCCN=C=S", "class_label": "satisfied"}
{"molecule": "O=C(OCc1ccccc1)c1ccccc1", "class_label": "satisfied"}
{"molecule": "S=C=NCc1ccccc1", "class_label": "satisfied"}
{"molecule": "C/C=C/COC(C)=O", "class_label": "not satisfied"}
{"molecule": "OCc1ccc(F)cc1", "class_label": "not satisfied"}
{"molecule": "Cc1ccc(O)c(O)c1", "class_label": "not satisfied"}
{"molecule": "S=C=Nc1ccc(N=C=S)cc1", "class_label": "satisfied"}
{"molecule": "O=C(CCl)CCl", "class_label": "satisfied"}
{"molecule": "Oc1cccc(Br)c1", "class_label": "satisfied"}
{"molecule": "CCCC(=O)CCC", "class_label": "not satisfied"}
{"molecule": "O=Cc1ccccc1", "class_label": "not satisfied"}
{"molecule": "CCOc1ccc(N)c([N+](=O)[O-])c1", "class_label": "not satisfied"}
{"molecule": "CC/C=C/C=C/C=O", "class_label": "not satisfied"}
{"molecule": "O=[N+]([O-])c1ccc(CBr)cc1", "class_label": "satisfied"}
{"molecule": "N#CCc1ccc(N)cc1", "class_label": "not satisfied"}
{"molecule": "Cc1ccccn1", "class_label": "not satisfied"}
{"molecule": "CC(=O)c1cccn1C", "class_label": "not satisfied"}
{"molecule": "CCNc1ccccc1", "class_label": "not satisfied"}
{"molecule": "Cc1ccc(N)cc1Cl", "class_label": "not satisfied"}
{"molecule": "O=C(O)CCCCCCCCCCC(=O)O", "class_label": "not satisfied"}
{"molecule": "COc1ccccc1C=O", "class_label": "not satisfied"}
{"molecule": "C=CC(=O)N(C)C", "class_label": "not satisfied"}
{"molecule": "CCCCC(O)CC (stereo not given)", "class_label": "not satisfied"}
{"molecule": "C=C(C)C(=O)OCCC", "class_label": "not satisfied"}
{"molecule": "CCCCCCCCCCC#CCCO", "class_label": "satisfied"}
{"molecule": "Cc1ccnc(C)c1", "class_label": "not satisfied"}
{"molecule": "CCCOC(=O)/C=C/c1ccccc1", "class_label": "satisfied"}
{"molecule": "Oc1ccc(O)c(-c2ccccc2)c1", "class_label": "satisfied"}
{"molecule": "C/C=C/C(=O)OC(C)CC (stereo not given)", "class_label": "not satisfied"}
{"molecule": "OCCc1cccc2ccccc12", "class_label": "not satisfied"}
{"molecule": "CC(=O)c1ccncc1", "class_label": "not satisfied"}
{"molecule": "CCCCCCC(C)=O", "class_label": "not satisfied"}
{"molecule": "O=C(O)c1cc(Cl)cc(Cl)c1", "class_label": "not satisfied"}
{"molecule": "N#Cc1ccccc1N", "class_label": "not satisfied"}
{"molecule": "Clc1sccc1Br", "class_label": "not satisfied"}
{"molecule": "c1ccoc1", "class_label": "not satisfied"}
{"molecule": "CN(CCO)CCO", "class_label": "not satisfied"}
{"molecule": "O=Cc1ccc(O)cc1O", "class_label": "not satisfied"}
{"molecule": "CC(C)=CC=O", "class_label": "not satisfied"}
{"molecule": "CCOc1ccc(O)cc1", "class_label": "not satisfied"}
{"molecule": "O=[N+]([O-])c1ccc(I)c([N+](=O)[O-])c1", "class_label": "satisfied"}
{"molecule": "CCCCCCCC(=O)c1ccccc1", "class_label": "satisfied"}
{"molecule": "COc1ccc(Cl)c(Cl)c1Cl", "class_label": "satisfied"}
{"molecule": "C=CSc1ccccc1", "class_label": "not satisfied"}
{"molecule": "Cc1ccc([N+](=O)[O-])cc1F", "class_label": "not satisfied"}
{"molecule": "C=CCC#N", "class_label": "not satisfied"}
{"molecule": "CC(=O)c1ccn(C)c1", "class_label": "not satisfied"}
{"molecule": "CC1(C)OCC(CO)O1 (stereo not given)", "class_label": "not satisfied"}
